src = patent US10131666B2

study_target: μ-opioid receptor (Homo sapiens)
Construct: host or cells: HEK-293; b235 lists HEK-293, CHO or U-2 OS)
Sequence (P35372 whole entry, species assumed): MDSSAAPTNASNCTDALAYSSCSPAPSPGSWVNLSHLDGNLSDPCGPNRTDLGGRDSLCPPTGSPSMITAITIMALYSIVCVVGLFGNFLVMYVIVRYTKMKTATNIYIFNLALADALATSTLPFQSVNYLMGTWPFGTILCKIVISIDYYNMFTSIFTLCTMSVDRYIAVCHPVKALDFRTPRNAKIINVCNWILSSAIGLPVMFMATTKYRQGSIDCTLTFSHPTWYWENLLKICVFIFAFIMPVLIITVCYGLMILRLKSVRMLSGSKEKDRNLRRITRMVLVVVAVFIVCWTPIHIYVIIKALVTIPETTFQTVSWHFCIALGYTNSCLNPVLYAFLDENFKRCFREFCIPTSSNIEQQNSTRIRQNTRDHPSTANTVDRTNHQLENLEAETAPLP
test_protocol: μ-opioid receptor [35S]GTPγS functional assay
Type: biochemical
reported_property: EC50 (nM)
Dear colleague, please return just the value in nM, with no unit written.

Look over these answered cases.
## Task Please report EC50 for the following compound: CN1CC[C@]23Cc4[nH]c(=O)c(C(=O)NCc5ccccc5)cc4C[C@H]2[C@H]1Cc1ccc(O)cc13
## Result 332

## Task Please report EC50 for the following compound: CN1CC[C@]23Cc4[nH]c(=O)c(C(=O)N5Cc6ccccc6C5)cc4C[C@H]2[C@H]1Cc1ccc(O)cc13
## Result 40.2

## Task Please report EC50 for the following compound: CN1CC[C@]23Cc4[nH]c(=O)c(C(=O)N5CCCC5)cc4C[C@H]2[C@H]1Cc1ccc(O)cc13
## Result 145

Here is the next item to consider.
## Task Please report EC50 for the following compound: NC(=O)c1cc2c([nH]c1=O)C[C@]13CCN[C@H](Cc4ccc(O)cc41)[C@]3(O)C2
## Result 2900
